- Substrate: NC(=O)C1=CN([C@@H]2O[C@H](COP(=O)(O)OP(=O)(O)OC[C@H]3O[C@@H](n4cnc5c(N)ncnc54)[C@H](OP(=O)(O)O)[C@@H]3O)[C@@H](O)[C@H]2O)C=CC1
- ASSAY TEXT: purified protein, by the assay type
Assign Km to each entry below.
Give just the number in µM; leave the unit off.

Which Km reading was recorded for the protein TaPOR1 (Triticum aestivum) (protein) GVVVITGASSGLGLAAAKALAETGKWHVVMACRDFLKASKAAKAAGMADGSYTVMHLDLASLDSVRQFVDAFRRAEMPLDVLVCNAAIYRPTARTPTFTADGHEMSVGVNHLGHFLLARLLMEDLQKSDYPSRRMVIVGSITGNSNTLAGNVPPKASLGDLRGLAGGLSGASGSAMIDGDESFDGAKAYKDSKVCNMLTMQEFHRRYHEETGITFSSLYPGCIATTGLFREHIPLFRTLFPPFQKFVTKGFVSEAESGKRLAQVVAEPSLTKSGVYWSWNKDSASFENQLSQEASDPEKARKVWELSEKLVGLA ?
39.67

And for AtPORB (Arabidopsis thaliana) (protein) QTAATSSPTVTKSVDGKKTLRKGNVVVTGASSGLGLATAKALAETGKWNVIMACRDFLKAERAAKSVGMPKDSYTVMHLDLASLDSVRQFVDNFRRTETPLDVLVCNAAVYFPTAKEPTYSAEGFELSVATNHLGHFLLARLLLDDLKKSDYPSKRLIIVGSITGNTNTLAGNVPPKANLGDLRGLAGGLNGLNSSAMIDGGDFDGAKAYKDSKVCNMLTMQEFHRRFHEETGVTFASLYPGCIASTGLFREHIPLFRALFPPFQKYITKGYVSETESGKRLAQVVSDPSLTKSGVYWSWNNASASFENQLSEEASDVEKARKVWEISEKLVGLA ?
1.27

And for SynPOR (Synechocystis sp. PCC 6803 substr. Kazusa) (protein) MEQPMKPTVIITGASSGVGLYGAKALIDKGWHVIMACRNLDKTQKVADELGFPKDSYTIIKLDLGYLDSVRRFVAQFRELGRPLKALVCNAAVYFPLLDEPLWSADDYELSVATNHLGHFLLCNLLLEDLKACPDADKRLIILGTVTANSKELGGKIPIPAPPDLGNFEGFEAGFKKPIAMINNKKFKSGKAYKDSKLCNMLTTRELHRRFHQETGIVFNSLYPGCVADTPLFRNHYSLFRTIFPWFQKNVTKGYVSQELAGERVAMVVADDKFKDSGVHWSWGNRQQAGREAFVQELSEQGSDAQKAQRMWDLSEKLVGLV ?
12.85
